Assign Ki to each entry below.
# tested_system: p53-Mdm2 interaction (N-terminal domain of Mdm2 protein, amino acids 1-111) (Homo sapiens, UniProt Q00987)
# Construct: N-terminal domain of Mdm2 protein (amino acids 1-111)
# Sequence (Q00987 1-111): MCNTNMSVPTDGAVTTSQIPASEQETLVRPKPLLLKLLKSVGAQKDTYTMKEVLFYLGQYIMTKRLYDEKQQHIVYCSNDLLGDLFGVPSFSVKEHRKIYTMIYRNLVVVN
# protocol_notes: Fluorescence polarization (FP) binding assay of p53-Mdm2 interaction
# condition_set: FP assay, 130 nM Mdm2, FAM-labelled p53 peptide; Ki transformed from IC50 using Kenakin equation
Write the value in nM as a bare number.

Prompt: For COc1ccccc1-n1nc2c(c1C(C)C)C1(C(=O)Nc3cc(Cl)ccc31)N(c1cccc(Cl)c1)C2=O (stereo not shown) , what is its reported Ki?
Response: 4.3

Prompt: // lookup Ki for CC1(C(=O)C2=C(O)C(=O)N(c3cccc(Cl)c3)C23C(=O)Nc2cc(Cl)ccc23)CC1 (stereo not shown)
Response: 194

Prompt: Which Ki value belongs to Cc1ccc(Cl)cc1N1C(=O)C(O)=C(C(=O)C2(C)CC2)C12C(=O)Nc1cc(Cl)ccc12 (stereo not shown) ?
Response: 122

Prompt: Please report the recorded Ki for Cc1ccc(Cl)cc1N1C(=O)C(O)=C(c2ccccc2)C12C(=O)Nc1cc(Cl)ccc12 (stereo not shown) .
Response: 29

* * *

# tested_system: p53-Mdm2 interaction (N-terminal domain of Mdm2 protein, amino acids 1-111) (Homo sapiens, UniProt Q00987)
# Construct: N-terminal domain of Mdm2 protein (amino acids 1-111)
# protocol_notes: Fluorescence polarization (FP) binding assay of p53-Mdm2 interaction
# condition_set: FP assay, 130 nM Mdm2, FAM-labelled p53 peptide; Ki transformed from IC50 using Kenakin equation
measured_endpoint: Ki (nM)
Your answer should be a plain number; it is taken to be in nM.

Prompt: Look up Ki: Cc1ccc(Cl)cc1N1C(=O)c2cn(-c3cccc4c3OCO4)c(C(C)C)c2C12C(=O)Nc1cc(Cl)ccc12 (stereo not shown)
Response: 9.6

Prompt: Look at this compound and give its reported Ki. COc1ccccc1-n1nc2c(c1C1(C)CC1)C1(C(=O)Nc3cc(Cl)ccc31)N(c1cccc(Cl)c1)C2=O (stereo not shown)
Response: 23

Prompt: Using the record for COc1ccc(C(N)=O)cc1-n1nc2c(c1C(C)C)C1(C(=O)Nc3cc(Cl)ccc31)N(c1cc(Cl)ccc1O)C2=O (stereo not shown) , report its Ki.
Response: 3.6

Prompt: Data request, read-out Ki, for CC(C)c1[nH]nc2c1C1(C(=O)Nc3cc(Cl)ccc31)N(c1cncc(Cl)c1)C2=O (stereo not shown)
Response: 152

Prompt: Fill in the blank: the reported Ki of CCN(CC)S(=O)(=O)c1ccc(OC)c(-n2cc3c(c2C(C)C)C2(C(=O)Nc4cc(Cl)ccc42)N(c2cc(Cl)ccc2C)C3=O)c1 (stereo not shown) is ____.
Response: 4.6

Prompt: Quick check: Ki of COc1ccc(N)cc1-n1cc2c(c1C(C)C)C1(C(=O)Nc3cc(Cl)ccc31)N(c1cc(Cl)ccc1C)C2=O (stereo not shown) ?
Response: 4

Prompt: Reported Ki for O=C1C(O)=C(Sc2ccc(Cl)cc2)[C@@]2(C(=O)Nc3cc(Cl)ccc32)N1c1cccc(Cl)c1 : what is it?
Response: 100

* * *

# tested_system: p53-Mdm2 interaction (N-terminal domain of Mdm2 protein, amino acids 1-111) (Homo sapiens)
# Construct: N-terminal domain of Mdm2 protein (amino acids 1-111)
# protocol_notes: Fluorescence polarization (FP) binding assay of p53-Mdm2 interaction
# condition_set: FP assay, 130 nM Mdm2, FAM-labelled p53 peptide; Ki transformed from IC50 using Kenakin equation
measured_endpoint: log10(Ki) (log10 of the value in nM)
In plain terms, each number is the log10 of measured Ki in nM.

Prompt: GET /values?readout=log10(Ki)&item= CC(C)c1c2c(nn1CC1CCCN1C(=O)N(C)C)C(=O)N(c1cccc(Cl)c1)C21C(=O)Nc2cc(Cl)ccc21 (centres unmarked)
Response: 2.37

Prompt: I am curious: what log10(Ki) value has been reported for O=C1C(O)=C(c2ccccc2)C2(C(=O)Nc3cc(Cl)ccc32)N1c1cc(Cl)ccc1F (centres unmarked) ?
Response: 1.56

Prompt: Please report the recorded log10(Ki) for Cc1ccc(Cl)cc1N1C(=O)c2n[nH]c(C3(C)CC3)c2C12C(=O)Nc1cc(Cl)ccc12 (centres unmarked) .
Response: 1.65

Prompt: # get_value(readout='log10(Ki)', item= CS(=O)(=O)OC1=C(c2ccccc2)C2(C(=O)Nc3cc(Cl)ccc32)N(c2cccc(Cl)c2)C1=O (centres unmarked) )
Response: 2.90

Prompt: Entry under review: COc1cccc(OC)c1-n1nc2c(c1C(C)C)C1(C(=O)Nc3cc(Cl)ccc31)N(c1cc(Cl)ccc1C)C2=O (centres unmarked) . Reported log10(Ki)?
Response: 2.08

Prompt: Fill blank: measured log10(Ki) of the compound COc1ccc(S(=O)(=O)N2CCOCC2)cc1-n1cc2c(c1C(C)C)C1(C(=O)Nc3cc(Cl)ccc31)N(c1cc(Cl)ccc1C)C2=O (centres unmarked) is ____.
Response: 0.54

Prompt: Dear colleague, I am looking for the recorded log10(Ki) of the following compound: COc1ccccc1-n1cc2c(c1C(C)C)[C@@]1(C(=O)Nc3cc(Cl)ccc31)N(c1cc(Cl)ccc1NS(C)(=O)=O)C2=O
Response: 0.46

Prompt: Would you kindly share the measured log10(Ki) for COc1ccc(N)cc1-n1cc2c(c1C(C)C)[C@@]1(C(=O)Nc3cc(Cl)ccc31)N(c1cc(Cl)ccc1C)C2=O ?
Response: 0.11

Prompt: Form field: reported log10(Ki) of CC(C)c1[nH]nc2c1C1(C(=O)Nc3cc(Cl)ccc31)N(c1cc(Cl)ccc1O)C2=O (centres unmarked)
Response: 1.73

Prompt: Given the compound COc1ccc(-n2cc3c(c2C(C)C)C2(C(=O)Nc4cc(Cl)ccc42)N(c2cc(Cl)ccc2C)C3=O)c(OC)c1 (centres unmarked) , what is its reported log10(Ki)?
Response: 0.58

Prompt: Given the compound COc1ccccc1-n1nc2c(c1C(C)C)[C@@]1(C(=O)Nc3cc(Cl)ccc31)N(c1cc(Cl)cnc1C)C2=O , what is its reported log10(Ki)?
Response: 0.28

Prompt: For COC(=O)c1ccc(OC)c(-n2nc3c(c2C(C)C)C2(C(=O)Nc4cc(Cl)ccc42)N(c2cc(Cl)ccc2O)C3=O)c1 (centres unmarked) , what is its reported log10(Ki)?
Response: 0.76

Prompt: Give its log10(Ki) value. Item: CC1(c2[nH]nc3c2C2(C(=O)Nc4cc(Cl)ccc42)N(c2cccc(Cl)c2)C3=O)CC1 (centres unmarked)
Response: 1.81

Prompt: # lookup: log10(Ki) of O=C1C(O)=C(c2ccccc2)C2(C(=O)Nc3ccc(Cl)cc32)N1c1cccc(Cl)c1 (centres unmarked)
Response: 2.74
